// provenance: paper PMC12051030

# subject of test: His6‐FraB (Salmonella FraB deglycase) (Salmonella enterica subsp. enterica serovar Typhimurium)
# test description: FraB-G6PD coupled assay, Michaelis–Menten analysis for K I and mode of inhibition
# Format: biochemical
# conditions used: trial shown in Fig. S11 panels Y-AJ; read-out: KI from α′ vs [I] plot
measured attribute: Ki (µM)

>>> endpoint_result("c1ccc(-c2nnc3sc(C4COc5ccccc5O4)nn23)nc1 (stereo not shown)")
32

====

# subject of test: UniProt:Q8ZLD0
# test description: FraB-G6PD coupled assay, Michaelis–Menten analysis for K I and mode of inhibition
# Type: biochemical
# conditions used: Trial 1; 6-P-F-Asp 62.5 µM, S/Km 1.488095; unit from Fig. S11 axis; read-out: IC50 (IC50 versus [S]/Km plots)
measured attribute: IC50 (µM)

>>> endpoint_result("O=c1sn(-c2ccccc2C(F)(F)F)c(=O)n1CC1CC1")
1.44
>>> endpoint_result("CC(C)Cc1cc(-c2nn3c(-c4ccccc4Cl)nnc3s2)n[nH]1")
20.5
>>> endpoint_result("Cc1cccc(Cl)c1-n1sc(=O)n(CC2CC2)c1=O")
5.0417
>>> endpoint_result("O=c1[nH][nH]c(=S)n1Cc1ccccc1")
18.3
>>> endpoint_result("c1ccc(-c2nnc3sc(C4COc5ccccc5O4)nn23)nc1 (centres unmarked)")
27.9

====

# subject of test: His6‐FraB (Salmonella FraB deglycase) (Salmonella enterica subsp. enterica serovar Typhimurium)
# test description: FraB-G6PD coupled assay, Michaelis–Menten analysis for K I and mode of inhibition
# Type: biochemical
# conditions used: IC50 (IC50 versus [S]/Km plots), Trial 1; 6-P-F-Asp 2000 µM, S/Km 47.61905; unit from Fig. S11 axis
measured attribute: IC50 (µM)

>>> endpoint_result("Fc1ccc(-c2nn3c(-c4ccccn4)nnc3s2)cc1 [3469:N17]")
32.5

====

# subject of test: His6‐FraB (Salmonella FraB deglycase) (Salmonella enterica subsp. enterica serovar Typhimurium)
# test description: FraB-G6PD coupled assay, Michaelis–Menten analysis for K I and mode of inhibition
# Assay type: biochemical
# conditions used: Trial 2; 6-P-F-Asp 31.3 µM, S/Km 0.745238; unit from Fig. S11 axis; read-out: IC50 (IC50 versus [S]/Km plots)
Entries and their IC50 values follow.
measured attribute: IC50 (µM)

>>> endpoint_result("CC(C)Cc1cc(-c2nn3c(-c4ccccc4Cl)nnc3s2)n[nH]1 [3470:A09]")
12.4
>>> endpoint_result("Cc1cccc(Cl)c1-n1sc(=O)n(CC2CC2)c1=O [1524:E12]")
4.8438
>>> endpoint_result("O=c1[nH][nH]c(=S)n1Cc1ccccc1 [1533:K12]")
26.5
>>> endpoint_result("O=c1sn(-c2ccccc2C(F)(F)F)c(=O)n1CC1CC1 [1524:G12]")
1.54
>>> endpoint_result("c1ccc(-c2nnc3sc(C4COc5ccccc5O4)nn23)nc1 (centres unmarked) [3469:F02]")
51.7

====

# subject of test: His6‐FraB (Salmonella FraB deglycase) (Salmonella enterica subsp. enterica serovar Typhimurium)
# test description: FraB-G6PD coupled assay, Michaelis–Menten analysis for K I and mode of inhibition
# Type: biochemical
# conditions used: IC50, mean and standard deviation of all IC50 values in IC50 vs [S]/Km plot, trial shown in Fig. S11 panels M-X
pIC50: −log10 of the molar value.
measured attribute: pIC50

>>> endpoint_result("Fc1ccc(-c2nn3c(-c4ccccn4)nnc3s2)cc1 [3469:N17]")
4.40

====

# subject of test: His6‐FraB (Salmonella FraB deglycase) (Salmonella enterica subsp. enterica serovar Typhimurium, UniProt Q8ZLD0)
# Sequence (Q8ZLD0 entry or part of it): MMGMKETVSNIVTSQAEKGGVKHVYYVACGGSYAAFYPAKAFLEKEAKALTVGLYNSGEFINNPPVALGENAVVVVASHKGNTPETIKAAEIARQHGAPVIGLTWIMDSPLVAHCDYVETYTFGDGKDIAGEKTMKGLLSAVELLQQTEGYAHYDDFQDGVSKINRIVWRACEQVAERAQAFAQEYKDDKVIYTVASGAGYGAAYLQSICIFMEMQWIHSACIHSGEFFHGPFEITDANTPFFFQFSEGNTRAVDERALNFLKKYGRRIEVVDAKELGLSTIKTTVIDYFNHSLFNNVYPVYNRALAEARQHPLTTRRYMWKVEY
# test description: FraB-G6PD coupled assay, Michaelis–Menten analysis for K I and mode of inhibition
# Assay type: biochemical
# conditions used: Trial 2; 6-P-F-Asp 500 µM, S/Km 11.90476; unit from Fig. S11 axis; read-out: IC50 (IC50 versus [S]/Km plots)
Entries and their IC50 values follow.
measured attribute: IC50 (µM)

>>> endpoint_result("O=c1[nH][nH]c(=S)n1Cc1ccccc1 [1533:K12]")
21.8
>>> endpoint_result("c1ccc(-c2nnc3sc(C4COc5ccccc5O4)nn23)nc1 (centres unmarked) [3469:F02]")
46.1
>>> endpoint_result("O=c1sn(-c2ccccc2C(F)(F)F)c(=O)n1CC1CC1 [1524:G12]")
1.41
>>> endpoint_result("CC(C)Cc1cc(-c2nn3c(-c4ccccc4Cl)nnc3s2)n[nH]1 [3470:A09]")
11
>>> endpoint_result("Cc1cccc(Cl)c1-n1sc(=O)n(CC2CC2)c1=O [1524:E12]")
4.9663

====

# subject of test: UniProt Q8ZLD0
# test description: FraB-G6PD coupled assay, IC50 determination
# Type: biochemical
# conditions used: IC50 (curve fit of IC50 plots, Fig. S10), Trial 2; 0.25 mM 6-P-F-Asp; unit in Fig. S10
measured attribute: IC50 (µM)

>>> endpoint_result("Fc1ccc(-c2nn3c(-c4ccccn4)nnc3s2)cc1 [3469:N17]")
86.7

====

# subject of test: His6‐FraB (Salmonella FraB deglycase) (Salmonella enterica subsp. enterica serovar Typhimurium)
# test description: FraB-G6PD coupled assay, Michaelis–Menten analysis for K I and mode of inhibition
# Format: biochemical
# conditions used: KI from α′ vs [I] plot, trial shown in Fig. S11 panels Y-AJ
pKi: −log10 of the molar value.
measured attribute: pKi

>>> endpoint_result("Fc1ccc(-c2nn3c(-c4ccccn4)nnc3s2)cc1 [3469:N17]")
4.49

====

Entries and their IC50 values follow.
# subject of test: His6‐FraB (Salmonella FraB deglycase) (Salmonella enterica subsp. enterica serovar Typhimurium, UniProt Q8ZLD0)
# test description: FraB-G6PD coupled assay, Michaelis–Menten analysis for K I and mode of inhibition
# Format: biochemical
# conditions used: Trial 2; 6-P-F-Asp 7.38 µM, S/Km 0.175714; unit from Fig. S11 axis; read-out: IC50 (IC50 versus [S]/Km plots)
measured attribute: IC50 (µM)

>>> endpoint_result("c1ccc(-c2nnc3sc(C4COc5ccccc5O4)nn23)nc1 (centres unmarked)")
41.2
>>> endpoint_result("O=c1sn(-c2ccccc2C(F)(F)F)c(=O)n1CC1CC1")
1.91
>>> endpoint_result("Cc1cccc(Cl)c1-n1sc(=O)n(CC2CC2)c1=O")
4.2249
>>> endpoint_result("O=c1[nH][nH]c(=S)n1Cc1ccccc1")
24.9
>>> endpoint_result("CC(C)Cc1cc(-c2nn3c(-c4ccccc4Cl)nnc3s2)n[nH]1")
19

====

# subject of test: His6‐FraB (Salmonella FraB deglycase) (Salmonella enterica subsp. enterica serovar Typhimurium)
# test description: FraB-G6PD coupled assay, Michaelis–Menten analysis for K I and mode of inhibition
# Type: biochemical
# conditions used: IC50 (IC50 versus [S]/Km plots), Trial 1; 6-P-F-Asp 15.7 µM, S/Km 0.37381; unit from Fig. S11 axis
measured attribute: IC50

>>> endpoint_result("Fc1ccc(-c2nn3c(-c4ccccn4)nnc3s2)cc1 [3469:N17]")
"45.4 µM"

====

# subject of test: His6‐FraB (Salmonella FraB deglycase) (Salmonella enterica subsp. enterica serovar Typhimurium, UniProt Q8ZLD0)
# test description: FraB-G6PD coupled assay, Michaelis–Menten analysis for K I and mode of inhibition
# Type: biochemical
# conditions used: kinetic analyses (Lineweaver‐Burk, α′ vs [I], IC50 vs [S]/K m, 1/IC50 vs v o/V max)
measured attribute: mode of inhibition

>>> endpoint_result("O=c1[nH][nH]c(=S)n1Cc1ccccc1")
"mixed‐type uncompetitive"
>>> endpoint_result("CC(C)Cc1cc(-c2nn3c(-c4ccccc4Cl)nnc3s2)n[nH]1")
"mixed‐type uncompetitive"
>>> endpoint_result("Fc1ccc(-c2nn3c(-c4ccccn4)nnc3s2)cc1")
"mixed‐type uncompetitive"

====

# subject of test: His6‐FraB (Salmonella FraB deglycase) (Salmonella enterica subsp. enterica serovar Typhimurium, UniProt Q8ZLD0)
# test description: FraB-G6PD coupled assay, Michaelis–Menten analysis for K I and mode of inhibition
# Format: biochemical
# conditions used: Trial 2; 6-P-F-Asp 250 µM, S/Km 5.952381; unit from Fig. S11 axis; read-out: IC50 (IC50 versus [S]/Km plots)
# Method: To determine the K I of each inhibitor, 29 μL of master mix was added to two rows of a 384‐well Greiner plate, using a single‐channel pipette, and incubated at 20 °C for 20 min. […] The initial velocities used to generate the Michaelis–Menten plots were also employed to obtain the IC50 vs [S]/K m plots. […] The IC50 values determined from the IC50 vs [S]/K m plots were then used to plot 1/IC50 versus v o/V max. […]
Entries and their IC50 values follow.
measured attribute: IC50 (µM)

>>> endpoint_result("O=c1[nH][nH]c(=S)n1Cc1ccccc1 [1533:K12]")
23.8
>>> endpoint_result("O=c1sn(-c2ccccc2C(F)(F)F)c(=O)n1CC1CC1 [1524:G12]")
1.27
>>> endpoint_result("Cc1cccc(Cl)c1-n1sc(=O)n(CC2CC2)c1=O [1524:E12]")
5.2509
>>> endpoint_result("CC(C)Cc1cc(-c2nn3c(-c4ccccc4Cl)nnc3s2)n[nH]1 [3470:A09]")
11.6
>>> endpoint_result("c1ccc(-c2nnc3sc(C4COc5ccccc5O4)nn23)nc1 (centres unmarked) [3469:F02]")
47.8
